The reported measurements were obtained from patent US20220112288A1.

# target-of-assay: T1, Rhesus macaque CD4-HIS (Acro Biosystems, Cat. CD4-C52H7) (rhesus macaque, UniProt P16003 26-390)
# T1 construct: Bought reagent; also called Rhesus CD4; rhesus CD4-HIS; not shown: His tag
# T1 sequence (P16003 26-390 limits assumed): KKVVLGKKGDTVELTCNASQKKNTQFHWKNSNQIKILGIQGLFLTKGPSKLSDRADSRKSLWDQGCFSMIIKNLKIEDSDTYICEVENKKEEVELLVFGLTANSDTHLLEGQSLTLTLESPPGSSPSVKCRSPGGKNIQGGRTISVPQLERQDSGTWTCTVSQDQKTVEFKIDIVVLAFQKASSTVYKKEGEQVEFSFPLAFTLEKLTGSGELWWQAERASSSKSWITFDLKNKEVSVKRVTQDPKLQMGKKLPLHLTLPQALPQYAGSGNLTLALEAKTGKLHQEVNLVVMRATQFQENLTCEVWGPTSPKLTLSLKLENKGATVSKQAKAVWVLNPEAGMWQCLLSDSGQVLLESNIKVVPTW
# assay-protocol: BLI Octet, mAb on anti-mouse Fc sensor, rhesus CD4-HIS 25-100 nM, 1:1 global fit;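 also: purified antibodies captured at 10 µg/mL, rhesus CD4 analyte run as a three-concentration serial dilution, irrelevant antibody as reference control, one kinetic constant set per antibody from global fitting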
Form field: kon (one value per entry).
Number only, in M⁻¹ s⁻¹; omit the unit.

Example entries and their recorded answers appear below.
binder	observable	result-value
75110_02I16A (antibody, V domains shown, Tested as antibody purified from AlivaMab Mouse hybridoma supernatant (captured by anti-mouse IgG Fc)) VH: QVQLQQWGAGLLKPSETLSLTCDVYGGSFSGYYWTWIRQPPGKGLEWIGEINHSGTTNSNPSLKSRVTISVDTSKSQFSLRLSSVTAADTAVYFCTRELNWFDPWGQGTLVTVSS VL: DIQMTQSPSSVSASVGDRVTITCRASQDIANWLAWYQQKPGKAPQLLIYAASSLLGGVPSRFSGSGSGADFTLTISSLHPEDFATYYCQQANSFPYTFGQGTKLEIK	kon	250000
75110_01A06A (antibody, V domains shown, Tested as antibody purified from AlivaMab Mouse hybridoma supernatant (captured by anti-mouse IgG Fc)) VH: EVQLVESGGGLVQPGGSLRLSCAASGFTFSSYWMSWVRQAPGKGLEWVANINEDGNEKYYVDSVKGRLTISRDNAKNSLYLQMNSLRAEDTAVYFCAREGGQWLSLDYWGQGALVTVSS VL: DIQMTQSPSSVSASVGDRVSITCRASQGISSWLAWYQQKPGKAPKILIYGASSLQSGVPSRFSGSGSGTDFTLTISSLQPEDFATYYCQQANSFPWTFGQGTKVEIK	kon	130000
75110_03B16A (antibody, V domains shown, Tested as antibody purified from AlivaMab Mouse hybridoma supernatant (captured by anti-mouse IgG Fc)) VH: EVQLVESGGGLVQPGGSLRLSCAASGFTFSSYWMSWVRQAPGKGLEWVANINEDGSEKNYVDSVKGRFTISRDNAKNSLCLQLNSLRAEDTAVYHCAREGGQWLALDYWGQGTLVTVSS VL: DIQMTQSPSSVSASVGDRVNITCRASQGIRSWLAWYQQKPGKTPKLLICGASSLQSGVPSRFSGSGSGTDFTLTISSLQPEDFATYYCQQANSFPWTFGQGTTVEIK	kon	170000
75110_04B08A (antibody, V domains shown, Tested as antibody purified from AlivaMab Mouse hybridoma supernatant (captured by anti-mouse IgG Fc)) VH: QVQLVESGGGVVQPGRSLRLSCTASGFNFINYGIHWVRQAPGKGLEWVTIIWYDGSKKYYADSVKGRFAISRDNSKNTLYLQMNSLRAEDTAVYYCAREDDWNDGLAYWGQGTLVTVSS VL: AIQMTQSPSSLSASVGDRVTITCRASQDIRNDLGWYQQKPGKAPNLLIYAASNLQSGVPSRFSGSGSGTDFTLTISSLQPEDFATYYCLQDSNYPRTFGQGTKVEIK	kon	270000

// switching to the query binder
Note to self: kon recorded for 75110_03I08A (antibody, V domains shown, Tested as antibody purified from AlivaMab Mouse hybridoma supernatant (captured by anti-mouse IgG Fc)) VH: QVQLQESGPGLVKPSETLSLTCTVSGGSISSYYWSWIRQPPGKGLEWIGYIYYSGSTNYNPSLKSRVTISVDTSKNQFSLKLSSVTAADTAVYYCAREGEQWFYGLDVWGQGTTVTVSS VL: EIVLTQSPGTLSLSPGERATLSCRASQSVSSTYLAWYQQKPGQAPRLLIYGSSSRATGIPDRFSGSGSGTDFTLTISRLEPEDFAVYYCQQYGNSFPITFGQGTRLEIK was 100000
